# assayed target: Plasmin (Homo sapiens, UniProt P00747)
# Sequence (P00747 581-810 limits assumed, species assumed): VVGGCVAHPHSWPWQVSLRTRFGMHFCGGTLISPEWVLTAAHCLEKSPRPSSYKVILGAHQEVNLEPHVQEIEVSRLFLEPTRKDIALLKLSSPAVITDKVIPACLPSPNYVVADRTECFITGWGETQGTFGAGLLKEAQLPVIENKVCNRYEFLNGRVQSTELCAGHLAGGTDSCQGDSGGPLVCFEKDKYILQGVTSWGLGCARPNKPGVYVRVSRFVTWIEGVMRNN
# Sequence (P00747 97-580 partner limits assumed, species assumed): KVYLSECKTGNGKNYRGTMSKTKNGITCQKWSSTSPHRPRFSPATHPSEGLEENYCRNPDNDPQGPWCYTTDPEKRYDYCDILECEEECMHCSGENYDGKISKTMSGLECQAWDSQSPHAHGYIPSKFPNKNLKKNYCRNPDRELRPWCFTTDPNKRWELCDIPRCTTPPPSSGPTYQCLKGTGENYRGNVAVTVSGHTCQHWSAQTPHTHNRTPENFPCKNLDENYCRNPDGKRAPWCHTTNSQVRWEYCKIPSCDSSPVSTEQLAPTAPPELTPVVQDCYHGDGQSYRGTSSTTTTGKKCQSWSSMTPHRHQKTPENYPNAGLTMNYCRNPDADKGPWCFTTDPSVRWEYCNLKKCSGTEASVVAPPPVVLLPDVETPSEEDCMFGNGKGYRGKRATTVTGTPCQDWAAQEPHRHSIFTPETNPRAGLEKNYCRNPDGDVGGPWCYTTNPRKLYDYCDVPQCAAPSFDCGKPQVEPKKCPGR
Structures can show the parent of a compound that is named as a salt.
Measured Ki of individual entries

N=C(N)Nc1ccc(CNC(=O)[C@@H](CO)c2ccccc2)cc1 (racemic) [ST-390, Hydrochloride]
> 1 mM

// next item, Ki requested
Lookup: Which Ki is reported with Plasmin (Homo sapiens, UniProt P00747) for this entry: N=C(N)Nc1ccc(CNC(=O)C(C(=O)OCc2ccccc2)c2ccccc2)cc1 (centres unmarked) [ST-401, hydrochloride] ?
Found: > 1 mM

* * *

Where a name gives a salt, the structure may show the parent alone.
pKi, uPA (sc-urokinase) (Homo sapiens, UniProt P00749): measured values
Here pKi is given on a logarithmic scale as minus log10 of the concentration in mol/L.

N=C(N)Nc1ccc(CNC(=O)C(C(=O)OCc2ccccc2)c2ccccc2)cc1 (stereo not shown) [ST-401, hydrochloride]
5.85

// next item, pKi requested
Lookup: Which pKi is reported with uPA (sc-urokinase) (Homo sapiens, UniProt P00749) for this entry: N=C(N)Nc1ccc(CNC(=O)[C@@H](CO)c2ccccc2)cc1 (racemic) [ST-390, Hydrochloride] ?
Found: 4.29

Values from patent US7049344B2
